tested on: Streptococcus pyogenes; assay: Antibacterial activity against Streptococcus pyogenes after 3 to 4 days by serial plate dilution method; type: functional; conditions: Streptococcus pyogenes
Each entry below carries its reported MIC.
property label: MIC (mg/L)

>  <smiles>
COc1ccc2nc(C)cc(-n3cc(CN(C)C)nn3)c2c1

>  <experimental system>
Streptococcus pyogenes

>  <recorded number>
6.25

$$$$
>  <smiles>
COc1ccc2nc(C)cc(-n3cc(CN4CCC(N5CCOCC5)CC4)nn3)c2c1

>  <experimental system>
Streptococcus pyogenes

>  <recorded number>
12.5

$$$$
>  <smiles>
COc1ccc2nc(C)cc(-n3cc(CN4CCCC4)nn3)c2c1

>  <experimental system>
Streptococcus pyogenes

>  <recorded number>
12.5

$$$$
>  <smiles>
COc1ccc2nc(C)cc(-n3cc(CN(C)CCN(C)C)nn3)c2c1

>  <experimental system>
Streptococcus pyogenes

>  <recorded number>
6.25

$$$$
>  <smiles>
COc1ccc2nc(C)cc(-n3cc(CN(C)C4CCCCC4)nn3)c2c1

>  <experimental system>
Streptococcus pyogenes

>  <recorded number>
50

$$$$
>  <smiles>
COc1ccc2nc(C)cc(-n3cc(CN4CCC(c5ccccc5)CC4)nn3)c2c1

>  <experimental system>
Streptococcus pyogenes

>  <recorded number>
12.5

$$$$
